Target system: EGFR L858R/C797S (Homo sapiens, UniProt P00533, C797S/L858R)
Sequence (P00533 25-1210 C797S/L858R): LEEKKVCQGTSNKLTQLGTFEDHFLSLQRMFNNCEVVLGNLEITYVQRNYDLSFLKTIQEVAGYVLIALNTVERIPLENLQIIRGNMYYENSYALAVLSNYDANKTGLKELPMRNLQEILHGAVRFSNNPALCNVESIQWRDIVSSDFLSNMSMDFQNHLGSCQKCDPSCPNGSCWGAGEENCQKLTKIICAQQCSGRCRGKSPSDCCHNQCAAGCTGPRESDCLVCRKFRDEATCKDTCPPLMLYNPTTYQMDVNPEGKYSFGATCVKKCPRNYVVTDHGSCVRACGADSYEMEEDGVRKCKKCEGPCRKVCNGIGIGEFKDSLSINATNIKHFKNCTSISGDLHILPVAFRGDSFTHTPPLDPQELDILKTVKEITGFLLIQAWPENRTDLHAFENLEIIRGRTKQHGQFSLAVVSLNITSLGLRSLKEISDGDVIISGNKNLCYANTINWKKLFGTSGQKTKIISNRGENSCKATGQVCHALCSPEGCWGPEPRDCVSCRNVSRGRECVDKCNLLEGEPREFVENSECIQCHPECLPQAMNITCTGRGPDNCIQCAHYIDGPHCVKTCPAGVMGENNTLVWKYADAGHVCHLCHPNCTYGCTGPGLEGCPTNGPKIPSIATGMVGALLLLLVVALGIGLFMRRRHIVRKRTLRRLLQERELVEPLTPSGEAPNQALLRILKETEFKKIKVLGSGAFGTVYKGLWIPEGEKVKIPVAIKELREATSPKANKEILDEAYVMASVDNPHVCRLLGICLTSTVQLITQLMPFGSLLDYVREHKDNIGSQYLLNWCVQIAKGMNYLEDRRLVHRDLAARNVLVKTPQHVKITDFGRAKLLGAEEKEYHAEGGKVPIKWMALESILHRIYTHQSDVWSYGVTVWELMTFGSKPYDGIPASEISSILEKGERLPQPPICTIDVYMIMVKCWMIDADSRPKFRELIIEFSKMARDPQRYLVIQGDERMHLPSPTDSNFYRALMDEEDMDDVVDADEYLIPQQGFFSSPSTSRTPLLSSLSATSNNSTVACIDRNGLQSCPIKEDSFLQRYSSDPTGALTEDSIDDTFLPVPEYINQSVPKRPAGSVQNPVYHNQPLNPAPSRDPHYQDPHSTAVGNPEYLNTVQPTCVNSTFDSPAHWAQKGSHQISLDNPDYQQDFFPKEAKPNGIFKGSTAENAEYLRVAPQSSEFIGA
Protocol: Biochemical EGFR kinase assay (Lance Ultra TR-FRET), double mutant L858R/C797S
Recorded conditions: ATP at Km; read-out: IC50 L858R/C797S, Km ATP
pIC50: −log10 of the molar value.
# if value of pIC50 reaches 9, tag y; if it stays below, tag n

[[record]]
compound = "CN1CCC(Oc2ccc(-c3cnc(Nc4ccnc(-c5cnn(S(=O)(=O)C6CC6)c5)n4)cc3N[C@H]3CC[C@@H](CO)CC3)nc2)CC1"
target_system = "EGFR L858R/C797S (Homo sapiens, UniProt P00533, C797S/L858R)"
group = "y"

[[record]]
compound = "CN(C)CCOc1ccc(-c2cnc(Nc3ccnc(-c4cnn(S(=O)(=O)C5CC5)c4)n3)cc2N[C@H]2CC[C@@H](C(C)(C)O)CC2)nc1"
target_system = "EGFR L858R/C797S (Homo sapiens, UniProt P00533, C797S/L858R)"
group = "y"

[[record]]
compound = "CN(C)S(=O)(=O)n1cc(-c2nccc(Nc3cc(NC4CCC(C)(O)CC4)c(-c4ccc(C(O)C(F)(F)F)cn4)cn3)n2)cn1 (stereo not drawn)"
target_system = "EGFR L858R/C797S (Homo sapiens, UniProt P00533, C797S/L858R)"
group = "n"

[[record]]
compound = "CC(C)(O)c1ccc(-c2cnc(Nc3ccnc(-c4cnn(S(=O)(=O)C5CC5)c4)n3)cc2NC2CCN(CC(F)F)CC2)nc1"
target_system = "EGFR L858R/C797S (Homo sapiens, UniProt P00533, C797S/L858R)"
group = "n"

[[record]]
compound = "C[C@]1(O)CC[C@@H](Nc2cc(Nc3ccnc(-c4cnn(S(=O)(=O)C5CC5)c4)n3)ncc2-c2ccc(OCCN3CCC3)cn2)CC1"
target_system = "EGFR L858R/C797S (Homo sapiens, UniProt P00533, C797S/L858R)"
group = "y"

[[record]]
compound = "O=S(=O)(C1CC1)n1cc(-c2nccc(Nc3cc(N[C@H]4CC[C@@H](NCC(F)F)CC4)c(-c4cccc(F)n4)cn3)n2)cn1"
target_system = "EGFR L858R/C797S (Homo sapiens, UniProt P00533, C797S/L858R)"
group = "n"

[[record]]
compound = "CN1CCC(Oc2ccc(-c3cnc(Nc4ccnc(-c5cnn(S(=O)(=O)C6CC6)c5)n4)cc3N[C@H]3CCC[C@H](CO)C3)nc2)CC1"
target_system = "EGFR L858R/C797S (Homo sapiens, UniProt P00533, C797S/L858R)"
group = "y"

[[record]]
compound = "O=S(=O)(C1CC1)n1cc(-c2nccc(Nc3cc(N[C@H]4CC[C@@H](CO)CC4)c(-c4cccc(CC(F)(F)F)n4)cn3)n2)cn1"
target_system = "EGFR L858R/C797S (Homo sapiens, UniProt P00533, C797S/L858R)"
group = "n"

[[record]]
compound = "O=S(=O)(C1CC1)n1cc(-c2nccc(Nc3cc(N[C@H]4CC[C@@H](CO)CC4)c(-c4cc(OCCN5CCOCC5)ccn4)cn3)n2)cn1"
target_system = "EGFR L858R/C797S (Homo sapiens, UniProt P00533, C797S/L858R)"
group = "y"

[[record]]
compound = "CC(C)(O)[C@H]1CC[C@@H](Nc2cc(Nc3ccnc(-c4cnn(S(=O)(=O)C5CC5)c4)n3)ncc2-c2ccc(S(C)(=O)=O)cn2)CC1"
target_system = "EGFR L858R/C797S (Homo sapiens, UniProt P00533, C797S/L858R)"
group = "n"

[[record]]
compound = "CC1(O)CCC(Nc2cc(Nc3ccnc(-c4cnn(S(=O)(=O)C5CC5)c4)n3)ncc2-c2ccc(C(C)(O)C(F)(F)F)cn2)CC1 (stereo not drawn)"
target_system = "EGFR L858R/C797S (Homo sapiens, UniProt P00533, C797S/L858R)"
group = "n"

[[record]]
compound = "CC(C)(F)c1ccc(-c2cnc(Nc3ccnc(-c4cnn(S(=O)(=O)C5CC5)c4)n3)cc2N[C@H]2CC[C@@H](F)CC2)nc1"
target_system = "EGFR L858R/C797S (Homo sapiens, UniProt P00533, C797S/L858R)"
group = "n"

[[record]]
compound = "CN1CCC(Oc2ccc(-c3cnc(Nc4ccnc(-c5cnn(S(=O)(=O)C6CC6)c5)n4)cc3NC3CCC(F)(F)CC3)nc2)CC1"
target_system = "EGFR L858R/C797S (Homo sapiens, UniProt P00533, C797S/L858R)"
group = "y"

[[record]]
compound = "O=S(=O)(C1CC1)n1cc(-c2nccc(Nc3cc(N[C@H]4CC[C@@H](CO)CC4)c(-c4ccc(OC(F)(F)F)cn4)cn3)n2)cn1"
target_system = "EGFR L858R/C797S (Homo sapiens, UniProt P00533, C797S/L858R)"
group = "n"

[[record]]
compound = "CC(F)(F)c1ccc(-c2cnc(Nc3ccnc(-c4cnn(S(=O)(=O)C5CC5)c4)n3)cc2N[C@H]2CC[C@@H](CO)CC2)nc1"
target_system = "EGFR L858R/C797S (Homo sapiens, UniProt P00533, C797S/L858R)"
group = "n"

[[record]]
compound = "CC(C)(O)[C@H]1CC[C@@H](Nc2cc(Nc3ccnc(-c4cnn(S(=O)(=O)C5CC5)c4)n3)ncc2-c2ccc(C(=O)N3CCOCC3)cn2)CC1"
target_system = "EGFR L858R/C797S (Homo sapiens, UniProt P00533, C797S/L858R)"
group = "y"

[[record]]
compound = "CC(C)(O)C1CCC(Nc2cc(Nc3ccnc(-c4cnn(S(=O)(=O)C5CC5)c4)n3)ncc2-c2ccc(C(O)C(F)(F)F)cn2)CC1 (stereo not drawn)"
target_system = "EGFR L858R/C797S (Homo sapiens, UniProt P00533, C797S/L858R)"
group = "n"

[[record]]
compound = "O=S(=O)(C1CC1)n1cc(-c2nccc(Nc3cc(N[C@H]4CC[C@@H](CO)CC4)c(-c4ccc(C(F)(F)CO)cn4)cn3)n2)cn1"
target_system = "EGFR L858R/C797S (Homo sapiens, UniProt P00533, C797S/L858R)"
group = "y"

[[record]]
compound = "CC(C)(F)c1ccc(-c2cnc(Nc3ccnc(-c4cnn(S(=O)(=O)C5CC5)c4)n3)cc2N[C@H]2CC[C@@H](C(C)(C)O)CC2)nc1"
target_system = "EGFR L858R/C797S (Homo sapiens, UniProt P00533, C797S/L858R)"
group = "n"

[[record]]
compound = "CN(C)C[C@H]1CC[C@@H](Nc2cc(Nc3ccnc(-c4cnn(S(=O)(=O)C5CC5)c4)n3)ncc2-c2cccc(F)n2)CC1"
target_system = "EGFR L858R/C797S (Homo sapiens, UniProt P00533, C797S/L858R)"
group = "y"

[[record]]
compound = "CN(C)CCOc1ccc(-c2cnc(Nc3ccnc(-c4cnn(S(=O)(=O)C5CC5)c4)n3)cc2N[C@H]2CC[C@@H](CO)CC2)nc1"
target_system = "EGFR L858R/C797S (Homo sapiens, UniProt P00533, C797S/L858R)"
group = "y"


---

Catalogue of IC50 readings, one per entry.
Target system: EGFR L858R/T790M/C797S (Homo sapiens, UniProt P00533, C797S/L858R/T790M)
Sequence (P00533 25-1210 T790M/C797S/L858R): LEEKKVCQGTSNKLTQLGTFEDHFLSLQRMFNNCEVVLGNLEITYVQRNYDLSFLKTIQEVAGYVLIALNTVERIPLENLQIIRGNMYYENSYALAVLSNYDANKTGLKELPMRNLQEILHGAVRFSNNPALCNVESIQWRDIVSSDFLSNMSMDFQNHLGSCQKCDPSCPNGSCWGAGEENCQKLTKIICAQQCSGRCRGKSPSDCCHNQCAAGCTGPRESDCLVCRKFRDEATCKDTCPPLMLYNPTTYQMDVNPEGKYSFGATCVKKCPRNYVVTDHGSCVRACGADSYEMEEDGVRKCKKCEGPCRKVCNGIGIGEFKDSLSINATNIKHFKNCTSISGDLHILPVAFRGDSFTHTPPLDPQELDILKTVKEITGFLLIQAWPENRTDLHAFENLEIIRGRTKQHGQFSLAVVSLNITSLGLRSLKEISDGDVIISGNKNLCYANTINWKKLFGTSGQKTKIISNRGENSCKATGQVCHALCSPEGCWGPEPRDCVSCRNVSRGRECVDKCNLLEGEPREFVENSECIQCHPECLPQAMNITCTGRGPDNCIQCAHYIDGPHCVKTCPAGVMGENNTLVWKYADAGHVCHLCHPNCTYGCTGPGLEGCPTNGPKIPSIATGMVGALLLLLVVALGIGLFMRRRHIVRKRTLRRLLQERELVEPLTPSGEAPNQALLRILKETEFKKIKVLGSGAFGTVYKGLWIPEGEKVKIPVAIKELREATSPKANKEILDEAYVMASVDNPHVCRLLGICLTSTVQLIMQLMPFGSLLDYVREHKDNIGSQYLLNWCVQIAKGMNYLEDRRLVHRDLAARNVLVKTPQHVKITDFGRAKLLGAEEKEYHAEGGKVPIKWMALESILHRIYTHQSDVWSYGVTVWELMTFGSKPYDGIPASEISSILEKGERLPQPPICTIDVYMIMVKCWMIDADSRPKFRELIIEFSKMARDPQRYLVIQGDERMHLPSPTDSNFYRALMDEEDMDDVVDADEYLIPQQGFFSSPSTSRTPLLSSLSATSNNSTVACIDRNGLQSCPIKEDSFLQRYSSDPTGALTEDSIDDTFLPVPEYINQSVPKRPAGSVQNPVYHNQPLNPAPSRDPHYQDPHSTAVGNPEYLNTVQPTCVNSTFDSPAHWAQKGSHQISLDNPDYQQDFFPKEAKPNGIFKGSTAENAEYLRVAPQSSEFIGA
Protocol: Biochemical EGFR kinase assay (Lance Ultra TR-FRET), triple mutant L858R/T790M/C797S
Recorded conditions: IC50 L858R/T790M/C797S (nM) 100 μM ATP, 100 μM ATP
Measurement type: IC50 (nM)

[[record]]
smiles_str = "CN(C)C[C@H]1CC[C@@H](Nc2cc(Nc3ccnc(-c4cnn(S(=O)(=O)C5CC5)c4)n3)ncc2-c2cc(C(C)(C)O)c(F)cn2)CC1"
target_system = "EGFR L858R/T790M/C797S (Homo sapiens, UniProt P00533, C797S/L858R/T790M)"
measurement_type = "IC50"
value_units = "nM"
quantitative_result = 0.2

[[record]]
smiles_str = "CN1CCN(Cc2ccc(-c3cnc(Nc4ccnc(-c5cnn(S(=O)(=O)C6CC6)c5)n4)cc3N[C@H]3CC[C@@](C)(O)CC3)nc2)CC1"
target_system = "EGFR L858R/T790M/C797S (Homo sapiens, UniProt P00533, C797S/L858R/T790M)"
measurement_type = "IC50"
value_units = "nM"
quantitative_result = 0.3

[[record]]
smiles_str = "C[C@]1(O)CC[C@@H](Nc2cc(Nc3ccnc(-c4cnn(S(=O)(=O)C5CC5)c4)n3)ncc2-c2cccc(CO)n2)CC1"
target_system = "EGFR L858R/T790M/C797S (Homo sapiens, UniProt P00533, C797S/L858R/T790M)"
measurement_type = "IC50"
value_units = "nM"
quantitative_result = 0.4

[[record]]
smiles_str = "CN(C)c1ccnc(-c2cnc(Nc3ccnc(-c4cnn(S(=O)(=O)C5CC5)c4)n3)cc2N[C@H]2CC[C@@](C)(O)CC2)n1"
target_system = "EGFR L858R/T790M/C797S (Homo sapiens, UniProt P00533, C797S/L858R/T790M)"
measurement_type = "IC50"
value_units = "nM"
quantitative_result = 0.9

[[record]]
smiles_str = "O=S(=O)(C1CC1)n1cc(-c2nccc(Nc3cc(N[C@H]4CC[C@@H](CO)CC4)c(-c4ccc(N5CCC(F)(F)CC5)nn4)cn3)n2)cn1"
target_system = "EGFR L858R/T790M/C797S (Homo sapiens, UniProt P00533, C797S/L858R/T790M)"
measurement_type = "IC50"
value_units = "nM"
quantitative_result = 1.4

[[record]]
smiles_str = "O=S(=O)(C1CC1)n1cc(-c2nccc(Nc3cc(N[C@H]4CC[C@H](CCO)CC4)c(-c4ccc(C(F)F)cn4)cn3)n2)cn1"
target_system = "EGFR L858R/T790M/C797S (Homo sapiens, UniProt P00533, C797S/L858R/T790M)"
measurement_type = "IC50"
value_units = "nM"
quantitative_result = 2

